Data origin: paper PMC7435646

Examples of molecules with documented melting point follow.

| MOLECULE | melting point |
| --- | --- |
| C[C@H](CCC(=O)OCc1ccco1)[C@H]1CC[C@H]2[C@@H]3C(=O)CC4C/C(=N/OCc5ccccc5)CC[C@]4(C)[C@H]3CC(=O)[C@]12C (stereo partly drawn) [Compound 2c-2] | 131.5 to 133.5 °C |
| C[C@H](CCC(=O)OCc1ccco1)[C@H]1CC[C@H]2[C@@H]3C(=O)CC4C/C(=N/O)CC[C@]4(C)[C@H]3CC(=O)[C@]12C (stereo partly drawn) [Compound 2c-1] | 193.2 to 195.2 °C |
| CON=C1CCC2(C)C(CC(=O)C3C2CC(=O)C2(C)C(C(C)CCC(=O)O)CCC32)C1 (stereo not drawn) [Compound 0-3] | 197.2 to 199.2 °C |

---

Examples of compounds with documented melting point follow.

| COMPOUND | melting point |
| --- | --- |
| CO/N=C1\CC[C@@]2(C)C(CC(=O)[C@H]3[C@@H]4CC[C@H]([C@H](C)CCC(=O)OCc5ccco5)[C@@]4(C)C(=O)C[C@@H]32)C1 (stereo partly shown) | 122.3 to 124.3 °C |
| CC(CCC(=O)O)C1CCC2C3C(=O)CC4CC(=NO)CCC4(C)C3CC(=O)C12C (stereo not shown) | 250.4 to 252.4 °C |
| CC(CCC(=O)O)C1CCC2C3C(=O)CC4CC(=NOCc5ccccc5)CCC4(C)C3CC(=O)C12C (stereo not shown) | 198.5 to 200.5 °C |
| CO/N=C1\CC[C@@]2(C)[C@H](CC(=O)[C@@H]3[C@@H]2CC(=O)[C@]2(C)[C@@H]([C@H](C)CCC(=O)OCc4ccccc4)CC[C@@H]32)C1 | 132.6 to 134.6 °C |

---

tested on: HBeAg; assay: Inhibition of HBeAg secretion (ELISA) in HepG2.2.15 cells; format: cell-based, hepatitis B virus (HBV); conditions: Hepatitis B virus, HepG2.2.15, 216 h, read-out: HBeAg IC50
pIC50: −log10 of the molar value.

| COMPOUND | pIC50 |
| --- | --- |
| C=C1[C@H](CO)[C@@H](O)C[C@@H]1n1cnc2c(=O)[nH]c(N)nc21 [ETV, Entecavir, reference compound] | 3.61 |
| C[C@H](CCC(=O)OCc1ccco1)[C@H]1CC[C@H]2[C@@H]3C(=O)CC4C/C(=N/OCc5ccccc5)CC[C@]4(C)[C@H]3CC(=O)[C@]12C (stereo partly shown) [Compound 2c-2] | 3.82 |
| CO/N=C1\CC[C@@]2(C)C(CC(=O)[C@H]3[C@@H]4CC[C@H]([C@H](C)CCC(=O)OCc5ccc6c(c5)OCO6)[C@@]4(C)C(=O)C[C@@H]32)C1 (stereo partly shown) [Compound 2b-3] | 4.31 |
| C[C@H](CCC(=O)OCc1ccccc1)[C@H]1CC[C@H]2[C@@H]3C(=O)CC4C/C(=N/O)CC[C@]4(C)[C@H]3CC(=O)[C@]12C (stereo partly shown) [Compound 2a-1] | 3.64 |
| CO/N=C1\CC[C@@]2(C)C(CC(=O)[C@H]3[C@@H]4CC[C@H]([C@H](C)CCC(=O)OCc5ccco5)[C@@]4(C)C(=O)C[C@@H]32)C1 (stereo partly shown) [Compound 2c-3] | 3.98 |
| CC(CCC(=O)O)C1CCC2C3C(=O)CC4CC(=NOCc5ccccc5)CCC4(C)C3CC(=O)C12C (stereo not shown) [Compound 0-2] | 3.92 |
| CO/N=C1\CC[C@@]2(C)[C@H](CC(=O)[C@@H]3[C@@H]2CC(=O)[C@]2(C)[C@@H]([C@H](C)CCC(=O)OCc4ccccc4)CC[C@@H]32)C1 [Compound 2a-3] | 3.73 |
| C[C@H](CCC(=O)OCc1ccccc1)[C@H]1CC[C@H]2[C@@H]3C(=O)CC4C/C(=N/OCc5ccccc5)CC[C@]4(C)[C@H]3CC(=O)[C@]12C (stereo partly shown) [Compound 2a-2] | 3.60 |
| C[C@H](CCC(=O)OCc1ccco1)[C@H]1CC[C@H]2[C@@H]3C(=O)CC4C/C(=N/O)CC[C@]4(C)[C@H]3CC(=O)[C@]12C (stereo partly shown) [Compound 2c-1] | 3.96 |
| C[C@H](CCC(=O)OCc1ccc2c(c1)OCO2)[C@H]1CC[C@H]2[C@@H]3C(=O)CC4C/C(=N/O)CC[C@]4(C)[C@H]3CC(=O)[C@]12C (stereo partly shown) [Compound 2b-1] | 4.01 |

---

experiment: Cytotoxicity by MTT assay in HepG2.2.15 cells; type: cell-based; details: human, 50% cytotoxicity concentration in HepG 2.2.15 cells, mean ± S.D. (n = 3)
Examples of compounds with documented CC50 at 9 days follow.

| COMPOUND | LIMIT OPERATOR | CC50 at 9 days (µM) |
| --- | --- | --- |
| C[C@H](CCC(=O)OCc1ccccc1)[C@H]1CC[C@H]2[C@@H]3C(=O)CC4C/C(=N/OCc5ccccc5)CC[C@]4(C)[C@H]3CC(=O)[C@]12C (some centres unmarked) | = | 211 |
| C=C1[C@H](CO)[C@@H](O)C[C@@H]1n1cnc2c(=O)[nH]c(N)nc21 [ETV, Entecavir, reference compound] | = | 600 |
| C[C@H](CCC(=O)OCc1ccco1)[C@H]1CC[C@H]2[C@@H]3C(=O)CC4C/C(=N/O)CC[C@]4(C)[C@H]3CC(=O)[C@]12C (some centres unmarked) | = | 155 |
| CON=C1CCC2(C)C(CC(=O)C3C2CC(=O)C2(C)C(C(C)CCC(=O)O)CCC32)C1 (centres unmarked) | > | 1000 |
| CO/N=C1\CC[C@@]2(C)[C@H](CC(=O)[C@@H]3[C@@H]2CC(=O)[C@]2(C)[C@@H]([C@H](C)CCC(=O)OCc4ccccc4)CC[C@@H]32)C1 | = | 169 |
| C[C@H](CCC(=O)OCc1ccco1)[C@H]1CC[C@H]2[C@@H]3C(=O)CC4C/C(=N/OCc5ccccc5)CC[C@]4(C)[C@H]3CC(=O)[C@]12C (some centres unmarked) | = | 101 |
| C[C@H](CCC(=O)OCc1ccccc1)[C@H]1CC[C@H]2[C@@H]3C(=O)CC4C/C(=N/O)CC[C@]4(C)[C@H]3CC(=O)[C@]12C (some centres unmarked) | = | 378 |
| CO/N=C1\CC[C@@]2(C)C(CC(=O)[C@H]3[C@@H]4CC[C@H]([C@H](C)CCC(=O)OCc5ccco5)[C@@]4(C)C(=O)C[C@@H]32)C1 (some centres unmarked) | = | 90.9 |

---

| MOLECULE | melting point |
| --- | --- |
| C[C@H](CCC(=O)OCc1ccccc1)[C@H]1CC[C@H]2[C@@H]3C(=O)CC4C/C(=N/OCc5ccccc5)CC[C@]4(C)[C@H]3CC(=O)[C@]12C (some centres unmarked) | 135.3 to 137.3 °C |
| CO/N=C1\CC[C@@]2(C)C(CC(=O)[C@H]3[C@@H]4CC[C@H]([C@H](C)CCC(=O)OCc5ccc6c(c5)OCO6)[C@@]4(C)C(=O)C[C@@H]32)C1 (some centres unmarked) | 118.7 to 120.7 °C |
| C[C@H](CCC(=O)OCc1ccccc1)[C@H]1CC[C@H]2[C@@H]3C(=O)CC4C/C(=N/O)CC[C@]4(C)[C@H]3CC(=O)[C@]12C (some centres unmarked) | 199.2 to 201.2 °C |
| C[C@H](CCC(=O)OCc1ccc2c(c1)OCO2)[C@H]1CC[C@H]2[C@@H]3C(=O)CC4C/C(=N/O)CC[C@]4(C)[C@H]3CC(=O)[C@]12C (some centres unmarked) | 182.5 to 184.5 °C |
| C[C@H](CCC(=O)OCc1ccc2c(c1)OCO2)[C@H]1CC[C@H]2[C@@H]3C(=O)CC4C/C(=N/OCc5ccccc5)CC[C@]4(C)[C@H]3CC(=O)[C@]12C (some centres unmarked) | 124.3 to 126.3 °C |

---

assay: Cytotoxicity by MTT assay in HepG2.2.15 cells; assay type: cell-based; settings: human, 50% cytotoxicity concentration in HepG 2.2.15 cells, mean ± S.D. (n = 3)
Examples of molecules with documented CC50 at 9 days follow.
QUANTITY NAME: CC50 at 9 days (µM)

| MOLECULE | LIMIT OPERATOR | EXPERIMENTAL RESULT |
| --- | --- | --- |
| C[C@H](CCC(=O)O)[C@H]1CC[C@H]2[C@@H]3C(=O)C[C@@H]4CC(=O)CC[C@]4(C)[C@H]3CC(=O)[C@]12C [DHCA, Dehydrocholic acid] | > | 1000 |
| CO/N=C1\CC[C@@]2(C)C(CC(=O)[C@H]3[C@@H]4CC[C@H]([C@H](C)CCC(=O)OCc5ccc6c(c5)OCO6)[C@@]4(C)C(=O)C[C@@H]32)C1 (stereo partly drawn) [Compound 2b-3] | = | 545 |
| C[C@H](CCC(=O)OCc1ccc2c(c1)OCO2)[C@H]1CC[C@H]2[C@@H]3C(=O)CC4C/C(=N/OCc5ccccc5)CC[C@]4(C)[C@H]3CC(=O)[C@]12C (stereo partly drawn) [Compound 2b-2] | = | 728 |
| C[C@H](CCC(=O)OCc1ccc2c(c1)OCO2)[C@H]1CC[C@H]2[C@@H]3C(=O)CC4C/C(=N/O)CC[C@]4(C)[C@H]3CC(=O)[C@]12C (stereo partly drawn) [Compound 2b-1] | > | 1000 |
| CC(CCC(=O)O)C1CCC2C3C(=O)CC4CC(=NOCc5ccccc5)CCC4(C)C3CC(=O)C12C (stereo not drawn) [Compound 0-2] | = | 470 |
| CC(CCC(=O)O)C1CCC2C3C(=O)CC4CC(=NO)CCC4(C)C3CC(=O)C12C (stereo not drawn) [Compound 0-1] | > | 1000 |
